# TARGET UNDER TEST: full-length ATR (Homo sapiens (Human), UniProt Q13535)
# Sequence (Q13535 whole entry): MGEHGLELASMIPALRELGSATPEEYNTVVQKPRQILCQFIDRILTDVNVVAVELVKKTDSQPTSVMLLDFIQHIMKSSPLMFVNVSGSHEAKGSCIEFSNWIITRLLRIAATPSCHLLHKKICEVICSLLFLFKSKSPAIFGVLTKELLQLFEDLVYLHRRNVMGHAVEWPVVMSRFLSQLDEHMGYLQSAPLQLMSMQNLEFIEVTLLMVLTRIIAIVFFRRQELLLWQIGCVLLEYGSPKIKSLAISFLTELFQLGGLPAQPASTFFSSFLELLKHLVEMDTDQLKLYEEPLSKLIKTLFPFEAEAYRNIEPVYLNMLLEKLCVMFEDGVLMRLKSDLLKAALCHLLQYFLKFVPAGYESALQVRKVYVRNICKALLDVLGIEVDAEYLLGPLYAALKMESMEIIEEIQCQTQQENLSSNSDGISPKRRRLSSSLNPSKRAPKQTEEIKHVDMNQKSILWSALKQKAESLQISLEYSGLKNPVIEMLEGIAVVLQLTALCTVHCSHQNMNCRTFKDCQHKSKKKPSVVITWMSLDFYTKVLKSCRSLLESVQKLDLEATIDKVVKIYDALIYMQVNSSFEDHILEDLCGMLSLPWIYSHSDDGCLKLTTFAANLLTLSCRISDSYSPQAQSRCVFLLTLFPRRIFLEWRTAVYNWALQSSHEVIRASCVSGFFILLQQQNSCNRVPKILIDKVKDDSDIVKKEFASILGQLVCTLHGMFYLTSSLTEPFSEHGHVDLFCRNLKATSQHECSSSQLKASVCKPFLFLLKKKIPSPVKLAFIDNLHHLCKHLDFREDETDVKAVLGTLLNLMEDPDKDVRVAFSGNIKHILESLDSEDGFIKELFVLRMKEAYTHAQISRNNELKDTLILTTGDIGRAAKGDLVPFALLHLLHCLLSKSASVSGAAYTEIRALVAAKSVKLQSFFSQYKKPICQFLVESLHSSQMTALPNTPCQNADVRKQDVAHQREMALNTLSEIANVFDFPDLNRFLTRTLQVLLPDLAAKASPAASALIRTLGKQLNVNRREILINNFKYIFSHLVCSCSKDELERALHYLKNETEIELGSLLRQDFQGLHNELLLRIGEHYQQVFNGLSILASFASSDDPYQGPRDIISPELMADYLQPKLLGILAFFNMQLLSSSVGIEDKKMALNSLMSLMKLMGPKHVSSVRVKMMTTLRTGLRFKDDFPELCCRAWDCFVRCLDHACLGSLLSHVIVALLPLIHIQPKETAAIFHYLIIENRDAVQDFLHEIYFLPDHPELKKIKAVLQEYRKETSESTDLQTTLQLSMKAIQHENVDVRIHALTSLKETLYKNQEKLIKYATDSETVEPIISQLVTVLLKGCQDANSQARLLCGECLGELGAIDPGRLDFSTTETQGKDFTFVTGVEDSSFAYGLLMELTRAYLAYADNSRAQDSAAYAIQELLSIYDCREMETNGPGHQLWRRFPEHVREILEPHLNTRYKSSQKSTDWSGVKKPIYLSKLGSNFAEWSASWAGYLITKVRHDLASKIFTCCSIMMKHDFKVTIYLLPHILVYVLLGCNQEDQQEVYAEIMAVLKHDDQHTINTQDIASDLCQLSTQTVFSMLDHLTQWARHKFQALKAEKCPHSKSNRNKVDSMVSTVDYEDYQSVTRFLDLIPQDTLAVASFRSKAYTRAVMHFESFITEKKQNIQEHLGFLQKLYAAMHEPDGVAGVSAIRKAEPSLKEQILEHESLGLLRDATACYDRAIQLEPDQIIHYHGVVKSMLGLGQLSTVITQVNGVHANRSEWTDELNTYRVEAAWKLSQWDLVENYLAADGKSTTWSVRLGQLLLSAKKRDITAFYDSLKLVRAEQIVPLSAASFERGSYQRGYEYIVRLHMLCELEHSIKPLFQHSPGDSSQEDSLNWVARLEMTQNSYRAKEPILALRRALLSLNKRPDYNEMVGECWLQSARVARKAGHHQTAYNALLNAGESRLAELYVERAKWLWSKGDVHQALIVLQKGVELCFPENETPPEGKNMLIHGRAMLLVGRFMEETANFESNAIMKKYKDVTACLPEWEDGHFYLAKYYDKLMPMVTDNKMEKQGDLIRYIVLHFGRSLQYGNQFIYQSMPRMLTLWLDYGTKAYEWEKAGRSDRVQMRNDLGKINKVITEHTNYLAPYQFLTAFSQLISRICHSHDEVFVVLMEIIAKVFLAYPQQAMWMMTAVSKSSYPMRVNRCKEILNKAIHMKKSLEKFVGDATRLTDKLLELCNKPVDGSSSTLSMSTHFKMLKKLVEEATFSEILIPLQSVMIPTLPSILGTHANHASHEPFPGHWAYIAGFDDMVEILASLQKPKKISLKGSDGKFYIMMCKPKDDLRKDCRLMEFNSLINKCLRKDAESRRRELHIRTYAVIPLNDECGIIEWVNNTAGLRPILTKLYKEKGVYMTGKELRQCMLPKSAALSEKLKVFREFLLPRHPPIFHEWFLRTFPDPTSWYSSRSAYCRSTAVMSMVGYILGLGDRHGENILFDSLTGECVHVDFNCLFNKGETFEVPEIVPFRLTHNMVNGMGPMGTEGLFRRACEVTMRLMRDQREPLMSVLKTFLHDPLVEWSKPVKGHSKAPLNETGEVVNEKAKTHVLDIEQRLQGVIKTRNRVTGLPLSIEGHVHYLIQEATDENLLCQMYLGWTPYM
# PROTOCOL SUMMARY: ATR Inhibition Assay (radioactive-phosphate incorporation)
# Format: biochemical
# CONDITION INFO: read-out: ATR Ki
Reported values of Ki for individual entries

CCS(=O)(=O)c1ccc(-c2cnc(N)c(-c3nnc(-c4ccccc4)o3)n2)cc1    ≤ 10 nM

Send back full-length ATR (Homo sapiens (Human), UniProt Q13535) Ki of `CS(=O)(=O)c1cccc(-c2cnc(N)c(-c3nc4ccccc4[nH]3)n2)c1` only. 10 to 100 nM

Send back full-length ATR (Homo sapiens (Human), UniProt Q13535) Ki of `Nc1ncc(-c2ccn[nH]2)nc1C(=O)Nc1ccccc1` only. 10 to 100 nM

====

Reported values of Ki for individual entries
# TARGET UNDER TEST: full-length ATR (Homo sapiens (Human), UniProt Q13535)
# PROTOCOL SUMMARY: ATR Inhibition Assay (radioactive-phosphate incorporation)
# Type: biochemical
# CONDITION INFO: read-out: ATR Ki

COc1ccccc1NC(=O)c1nc(-c2ccc(C(=O)N(C)C)cc2)cnc1N    ≤ 10 nM
Cc1ccsc1-c1nnc(-c2nc(-c3ccc(C(=O)N4CCCNCC4)cc3C#N)cnc2N)o1    ≤ 10 nM
Nc1ncc(-c2ccc(C(=O)NCC3CCOCC3)cc2)nc1C(=O)Nc1ccccc1    100 to 5000 nM

Quickly give me recorded Ki for `Nc1ncc(-c2ccc(N3CCOCC3)cc2)nc1C(=O)Nc1ccccc1` 100 to 5000 nM

Quickly give me recorded Ki for `Nc1ncc(-c2ccsc2)nc1-c1nnc(-c2ccccc2)o1` 10 to 100 nM

Quickly give me recorded Ki for `Nc1ncc(-c2ccc(C(=O)N3CCCNCC3)nc2)nc1-c1nnc(-c2ccccc2)o1` ≤ 10 nM

Quickly give me recorded Ki for `CC(C)S(=O)(=O)c1ccc(-c2cnc(N)c(-c3nnc(-c4cccc([C@H](C)N)c4)o3)n2)cc1` ≤ 10 nM

====

# TARGET UNDER TEST: full-length ATR (Homo sapiens (Human))
# PROTOCOL SUMMARY: ATR Inhibition Assay (radioactive-phosphate incorporation)
# Assay type: biochemical
# CONDITION INFO: read-out: ATR Ki
pKi: −log10 of the molar value.
Reported values of pKi for individual entries

Worked cases, answers included:
Nc1ncc(-c2ccc(S(=O)(=O)N3CCCC3)cc2)nc1-c1nc2ccccc2[nH]1    ≥ 8.00
Nc1ncc(-c2ccncc2)nc1-c1nnc(-c2cccs2)o1    ≥ 8.00

From here, focus on the item given below.
Quickly give me recorded pKi for `Nc1ncc(-c2cccc(CO)c2)nc1-c1nnc(-c2ccccc2)o1` 5.30 to 7.00

====

# TARGET UNDER TEST: full-length ATR (Homo sapiens (Human))
# PROTOCOL SUMMARY: ATR Inhibition Assay (radioactive-phosphate incorporation)
# Assay type: biochemical
# CONDITION INFO: read-out: ATR Ki
pKi: −log10 of the molar value.
Reported values of pKi for individual entries

Worked cases, answers included:
CC(C)S(=O)(=O)c1ccc(-c2cnc(N)c(-c3nnc(N)o3)n2)cc1    ≥ 8.00
CN(C)C(=O)c1ccc(-c2cnc(N)c(-c3nnc(-c4ccccc4)o3)n2)c(-c2cnco2)c1    7.00 to 8.00
Nc1ncc(-c2ccc(N3CCOCC3)nc2)nc1C(=O)Nc1ccccc1    7.00 to 8.00
Nc1ncc(-c2ccco2)nc1C(=O)Nc1ccccc1    5.30 to 7.00
Cc1cc(NC(=O)c2nc(-c3ccc(S(C)(=O)=O)cc3)cnc2N)ccn1    7.00 to 8.00

Quickly give me recorded pKi for `CN(C)C(=O)c1ccc(-c2cnc(N)c(-c3nnc(-c4ccc(CNC(=O)OC(C)(C)C)cc4)o3)n2)cc1` 7.00 to 8.00

Quickly give me recorded pKi for `CNCc1ccc(-c2nnc(-c3nc(-c4ccc(C(=O)N(C)C)cc4)cnc3N)o2)cc1` ≥ 8.00

Quickly give me recorded pKi for `Nc1ncc(-c2ccc(C(=O)N3CCCNCC3)cc2)nc1C(=O)Nc1ccccc1` 7.00 to 8.00
